Attribution: ChEMBL document CHEMBL4229473

- target-of-assay: UniProt Q9P2J5
- assay-protocol: Inhibition of LRS-mediated mTORC1 activation in HEK293 cells assessed as decrease in leucine-induced S6K phosphorylation at T389 at 200 uM treated prior to leucine induction measured after 10 mins by Western blot method
- Type: cell-based
Active and inactive are the calls of the source. No cut-off for these calls is given here.
Give one outcome, nothing more. List: active, inactive

Answer briefly: the call reported for COc1cc2ncnc(Nc3ccc(F)c(Cl)c3)c2cc1OS(=O)(=O)NC(=O)[C@@H](N)CC(C)C in this assay.
active

Status in this test for COc1cc2ncnc(Nc3ccc(F)c(Cl)c3)c2cc1OCCNC(=O)[C@@H](N)CC(C)C ?
active

Test call for this compound, please: COc1cc2ncnc(Nc3ccc(F)c(Cl)c3)c2cc1OCCOS(=O)(=O)NC(=O)[C@@H](O)CC(C)C
inactive

Name the outcome recorded for COc1cc2ncnc(Nc3ccc(F)c(Cl)c3)c2cc1OC(=O)[C@@H](N)CC(C)C in the assay.
inactive

Dear colleague, could you share the recorded outcome for COc1cc2ncnc(Nc3ccc(F)c(Cl)c3)c2cc1OCCOC(=O)[C@@H](N)CC(C)C when you have a moment?
active

----------
- target-of-assay: Leucine--tRNA ligase, cytoplasmic (Homo sapiens) (UniProt Q9P2J5)
- Sequence (Q9P2J5 whole entry, looked up): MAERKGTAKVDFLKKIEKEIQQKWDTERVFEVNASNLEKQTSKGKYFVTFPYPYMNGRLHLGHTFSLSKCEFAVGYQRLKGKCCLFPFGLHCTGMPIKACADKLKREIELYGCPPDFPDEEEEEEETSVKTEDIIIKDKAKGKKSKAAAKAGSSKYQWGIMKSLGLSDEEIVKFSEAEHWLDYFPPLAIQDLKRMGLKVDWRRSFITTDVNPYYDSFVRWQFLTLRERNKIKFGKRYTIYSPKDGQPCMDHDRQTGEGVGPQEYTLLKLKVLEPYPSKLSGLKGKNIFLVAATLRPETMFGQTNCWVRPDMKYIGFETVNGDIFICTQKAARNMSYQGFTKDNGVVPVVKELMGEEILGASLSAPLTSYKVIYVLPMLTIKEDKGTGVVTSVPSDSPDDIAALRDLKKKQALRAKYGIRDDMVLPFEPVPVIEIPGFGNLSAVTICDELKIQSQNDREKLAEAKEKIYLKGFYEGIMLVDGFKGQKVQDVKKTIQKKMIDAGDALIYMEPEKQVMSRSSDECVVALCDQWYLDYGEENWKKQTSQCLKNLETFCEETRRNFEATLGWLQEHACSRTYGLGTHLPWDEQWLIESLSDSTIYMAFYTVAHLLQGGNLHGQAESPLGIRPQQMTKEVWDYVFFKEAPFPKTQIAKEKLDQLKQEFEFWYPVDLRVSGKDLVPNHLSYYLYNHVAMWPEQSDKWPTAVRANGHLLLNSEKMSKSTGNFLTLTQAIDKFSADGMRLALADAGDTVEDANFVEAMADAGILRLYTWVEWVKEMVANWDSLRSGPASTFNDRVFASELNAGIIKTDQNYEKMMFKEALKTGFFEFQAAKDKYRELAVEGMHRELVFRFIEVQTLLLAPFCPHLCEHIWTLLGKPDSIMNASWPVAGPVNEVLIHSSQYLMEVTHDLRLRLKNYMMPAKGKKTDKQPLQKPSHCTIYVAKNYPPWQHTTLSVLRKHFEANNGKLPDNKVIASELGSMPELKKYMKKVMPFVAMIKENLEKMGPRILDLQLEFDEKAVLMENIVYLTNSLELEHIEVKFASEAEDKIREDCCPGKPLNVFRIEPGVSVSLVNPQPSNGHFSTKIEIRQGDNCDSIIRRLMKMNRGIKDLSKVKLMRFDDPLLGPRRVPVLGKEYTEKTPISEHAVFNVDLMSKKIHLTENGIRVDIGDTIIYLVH
- assay-protocol: Inhibition of LRS-mediated mTORC1 activation in HEK293 cells assessed as decrease in leucine-induced S6K phosphorylation at T389 at 200 uM treated prior to leucine induction measured after 10 mins by Western blot method
- Assay type: cell-based
Active and inactive are the calls of the source. The rule behind the calls is not given here.
measurement-name: inhibition

COc1cc2ncnc(Nc3ccc(F)c(Cl)c3)c2cc1OCCNC(=O)[C@@H](O)CC(C)C    Active
COc1cc2ncnc(Nc3ccc(F)c(Cl)c3)c2cc1OS(=O)(=O)NC(=O)[C@@H](O)CC(C)C    Active
COc1cc2ncnc(Nc3ccc(F)c(Cl)c3)c2cc1OC(=O)[C@@H](O)CC(C)C    inactive
COc1cc2ncnc(Nc3ccc(F)c(Cl)c3)c2cc1OCCOS(=O)(=O)NC(=O)[C@@H](N)CC(C)C    inactive

----------
- Test system: HEK293
- assay-protocol: Effect on mTOR expression in HEK293 cells at 200 uM treated prior to leucine addition measured after 10 mins by Western blot method
- Type: functional, cell-based
- condition: Homo sapiens
Active and inactive are the calls of the source. No cut-off for these calls is given here.
measurement-name: Activity

COc1cc2ncnc(Nc3ccc(F)c(Cl)c3)c2cc1OC(=O)[C@@H](N)CC(C)C    inactive
COc1cc2ncnc(Nc3ccc(F)c(Cl)c3)c2cc1OC(=O)[C@@H](O)CC(C)C    inactive
COc1cc2ncnc(Nc3ccc(F)c(Cl)c3)c2cc1OS(=O)(=O)NC(=O)[C@@H](N)CC(C)C    inactive
COc1cc2ncnc(Nc3ccc(F)c(Cl)c3)c2cc1OCCOS(=O)(=O)NC(=O)[C@@H](O)CC(C)C    inactive
COc1cc2ncnc(Nc3ccc(F)c(Cl)c3)c2cc1OCCOS(=O)(=O)NC(=O)[C@@H](N)CC(C)C    inactive

Now look at this one.
Record COc1cc2ncnc(Nc3ccc(F)c(Cl)c3)c2cc1OCCNC(=O)[C@@H](O)CC(C)C . Reported Activity: inactive

----------
I'd be grateful if you could share measured pIC50 for these entries.
- Tested on: MRC5
- assay-protocol: Cytotoxicity against human MRC5 cells assessed as growth inhibition after 72 hrs by SRB assay
- Format: cell-based
- condition: MRC5, 72 h
// pIC50: -log10(molar conc.)

Recorded pIC50 (molecule COc1cc2ncnc(Nc3ccc(F)c(Cl)c3)c2cc1OCCOC(=O)[C@@H](O)CC(C)C ): 5.95

Entry COc1cc2ncnc(Nc3ccc(F)c(Cl)c3)c2cc1OCCOC(=O)[C@@H](N)CC(C)C ; pIC50 = 5.73

get_value(item= COc1cc2ncnc(Nc3ccc(F)c(Cl)c3)c2cc1OS(=O)(=O)NC(=O)[C@@H](O)CC(C)C , readout=pIC50) returns 4.73
